FYI, the data here is from the DeepSol protein solubility set.

procedureSummary: soluble on expression in E. coli; label from the status in PepcDB or PDB records

{"columns": ["sequenceRecord", "soluble on expression in E. coli"],
 "data": [
  ["HHMKLYIMPGACSLADHILLRWSGSSFDLQFLDHQSMKAPEYLALNPSGAVPALQVGDWVLTQNAAILNYITDIAPAERGLSGDGSLKARAEINRWIAFSNSDVHPMYWALFGGTAYLQDPQMIARSQDNARQKLRVLYQRADAHLKHHNWLANGQRSGADAYLYVTLRWAKKVGVDLSSLDALSAFFERMEADPGVQAALQAEGLI", "soluble"],
  ["MQTLILMAYIKRLVSEGKHASLREAYYANKHTVPGTRENTFEDQSESDPIIEDLERMLGVLREEMHITADRRGYIYGDIVIKDGEDEFNASKLGTGGWAVPGTVEHIQFPEINVDYVLVVETAAMADRLIEEKYPKRENCLIVATQGQASRGVRRLIHRLHYEEGLPIIVFTDGDPYGWYIYSTIKRGSINLAYLSEKLATPDAKFVGMTMDDIKEYNLENVTEKLKGIPPDKKGGPTGDYKRLIEELNYPWFQDKEWQRQLKLALKWGVRIEQQALANKSLEFVAKEYLPEKIREGKLLP", "soluble"]
]}

----------
procedureSummary: soluble on expression in E. coli; label from the status in PepcDB or PDB records

{"columns": ["sequenceRecord", "soluble on expression in E. coli"],
 "data": [
  ["MNELQAYHLSRNQFCPNLFFLAMNNVAQTDTPQQYDLRILRALRRITRSIALHSRQLAAVSHITAPQLMCLRAVIAGGPMTATAISREIHVSPSTVVGILDRLEDKGLIRRERGREDRRIVFVTATEGGRTLAAEAPSPLQKHLADGLNALPELEQATITLALERIVALMEQEGHAVEAAGEGSPPILEMPTGGAPPESGLVV", "not soluble"],
  ["MGSDKIHHHHHHLDDYDDDIYDMQAGMPFNAALATVVTPSEIPGEAMIESDNDGVAYVVNPDKLTRFETNNPGQRIFYTYINADNPTGDASKKGPFISIDYLQKILTKRMDTLKENEEDIYGHDGINLITPIMGKTHLTLMFQILGFNSNIKHRISLVATEGTVPDANGYMAVELRHNAEGDRQEYPSSGYVSFPLLDVPGYKEGKLQGFKIKMNTINNGEETVTVSYNKSKSTNFPFIQKGISNTKIK", "not soluble"]
]}

----------
procedureSummary: soluble on expression in E. coli; label from the status in PepcDB or PDB records
attributeMeasured: soluble on expression in E. coli

{"columns": ["sequenceRecord", "attributeMeasured", "result"],
 "data": [
  ["MSDQPRPTVIITGASSGVGLYATKALANRGWHVIMACRNLEKAEQAAKNLQIPPEAYTILHLDLSSLASVRGFVESFRALNRPLRALVCNAAVYYPLLKEPIYSVDGYEITVATNHLGHFLLINLLLEDLKNSPESDKRLVILGTVTANRKELGGKIPIPAPPDLGNLEGFEKGFKKPIAMINGKPFKSGKAYKDSKLCNMLTARELHRRFHESTGIVFNSLYPGCVADTPLFRHHFPLFQKLFPLFQKKITGGYVSQELAGERVAMVVADPEFRQSGVHWSWGLEHHHHHH", "soluble on expression in E. coli", "soluble"],
  ["MHHHHHHMKNVIFEDEEKSKMLARLLKSSHPEDLRAANKLIKEMVQEDQKRMEKISKRVNAIEEVNNNVKLLTEMVMSHSQGGAAAGSSEDLMKELYQRCERMRPTLFRLASDTEDNDEALAEILQANDNLTQVINLYKQLVRGEEVNGDATAGSIPG", "soluble on expression in E. coli", "soluble"]
]}

----------
procedureSummary: soluble on expression in E. coli; label from the status in PepcDB or PDB records
attributeMeasured: soluble on expression in E. coli

# annotated cases, reported soluble on expression in E. coli shown
{"columns": ["sequenceRecord", "soluble on expression in E. coli"],
 "data": [
  ["VDRYNDQASGRALIEIRLCNERATPMPIPIGLWMFQTKLHVNAGGADVFLPVCDVLEQDLAERDEEVRQLNLQYRNRLEYAIGRTCSAAWSVNGSRRPSAVWTTWLPVAETPHTRARSVENALLSMDSRGGVT", "not soluble"],
  ["MPADPRNAGKDKGNLQMELQNLLTSARIRKMEYEAIVEELEEDELKYDLFEYQDYLENYIMPYVERAYKNGSKELIGMAEEVKSIFEEIIDMIKARIEKK", "not soluble"],
  ["NLHLLEYLHILPLDKIGIPKFAPKLDRKKHGDLDRPNLIYPADEQIYIHVYPDKNDMRNFYIPIEPTLLTGVDELLKEVEIRLVDYITDIDF", "not soluble"],
  ["MDYEIENNHADSIRRGSIEVICGSMFSGKTEELLRRLRRAKIARQTVEIFKPTIDIRYDETDVVSHDKNAIASTPVDNSANILLLSSQVDVVGIDEAQFFDEGLVEVAQQLADQGVRVVIAGLDMDFRRQPFGPMPGLCAIADSVTKVHAVCVECGRLASYSFRRVQGDQQVMLGELNEYSPLCRTCYRKCSSPPQTEEIHSTI", "not soluble"],
  ["GSSGSSGDKKAYFYHSSFQILNVEYTEALNSPATHEYRTLSERIEAMITDEFRGSSLKSEFIRTHVVKLRKEGTGVVADVVMKFRSSKRNNRKVMKTRIQSVLRRLSSSGNLEIAPSNEITSLTDQDT", "soluble"]
]}

IN: Any idea what soluble on expression in E. coli was measured for `MNIQEKFKAIRKQRKLSLRDLANVAGSTSSISDFEKGKTNLSNDVLLQLLGFMVVEINEIFEWSAFQDAEFLELMTQVENALQTQDITVLIQKRETLQEFFVAKNHYIYHIISLVLDVIISKLQEKEPTPEIISELTDYFFSLDYWTNLDVGLLGNIVHHFTTETLVLFTDSILKNTPNQLRNNLDRIKIDTVINCLSVLLARREKNASQELLQLLSRKQFPTYFTYEKLCISEFKAIYMYIWCDKEEADNIHQTILKTVSLLFTKDEANKWDDYFKEIISSADIKK` ?
OUT: not soluble

IN: Any idea what soluble on expression in E. coli was measured for `MGSDKIHHHHHHMKRLITQALDGEAGCILSDCEQYRYRLWREWDRSAPGLGFIMLNPSSADHQVNDPTITRCLQRALAGKYGRLEVVNLFPLRSTDPDGLLTHPAPLGDRPDRNECAIMDALDRCSLVICAWGAHKAAPARAAEVLRIVRMCGRGNLLYHLGLNKDGSPKHPLYIAKTKRPEPFTSIPVTQVNREYAPHR` ?
OUT: not soluble

IN: Any idea what soluble on expression in E. coli was measured for `MNRRQFLGSAAAVSLASAASFARAHGHADYHHHHDMQPAAASAYTAVRQTAAHCLDAGQVCLTHCLSLLTQGDTSMSDCAVAVRQMLALCGAVHDLAAQNSPLTRDAAKVCLEACKQCAKACKEHSAHHAECKACYESCLDCIKECEKLAALEHHHHHH` ?
OUT: soluble

IN: Any idea what soluble on expression in E. coli was measured for `DPRLARLLGLHTQSRSAIVQALWQYVKTNRLQDSHDKEYINGDKYFQQIFDCPRLKFSEIPQRLTALLLP` ?
OUT: soluble

----------
procedureSummary: soluble on expression in E. coli; label from the status in PepcDB or PDB records
attributeMeasured: soluble on expression in E. coli

{"columns": ["sequenceRecord", "attributeMeasured", "result"],
 "data": [
  ["MRLYWRMPTTTPALRPQDLTETAFAPYGWMLGKPLPAGDDVLRFSNPATDFWQEHVFDTGAGAGRETEVLWVNYRISQPGFDTLEKHLLTQQAIVPLTGAIVQIVARSAFDGSPDLASLAAFVVPPGQGICMRPGCWHATRISGGEVTCLMLTRRSTTLDLVRHLHGEPARESEIVAIVPHGLDLPARPTAEGPAPHGRLEHHHHHH", "soluble on expression in E. coli", "not soluble"],
  ["GPGSMRVNDSITVQQLADEYCITSVVECDATGSVQPRAVALDSPLDVLHGGKYYIARRDVKHFAREPRVTFRGKVTVREFNATHGVIGREGETNANRGQAVAADPVGVAPSRKRPEREEDLFDSGTRTEIYAKEYEFVPFVGDLYNDGRNGMIHLKDVKKLCESVDLDEVEFRARHVQAEKILTHAKQLLLSYADGNGGRTSPEY", "soluble on expression in E. coli", "not soluble"],
  ["MQDEYYMARALKLAQRGRFTTHPNPNVGCVIVKDGEIVGEGYHQRAGEPHAEVHALRMAGEKAKGATAYVTLEPCSHHGRTPPCCDALIAAGVARVVASMQDPNPQVAGRGLYRLQQAGIDVSHGLMMSEAEQLNKGFLKRMRTGFPYIQLKLGASLDGRTAMASGESQWITSPQARRDVQLLRAQSHAILTSSATVLADDPALTVRWSELDEQTQALYPQQNLRQPIRIVIDSQNRVTPVHRIVQQPGETWFARTQEDSREWPETVRTLLIPEHKGHLDLVVLMMQLGKQQINSIWVEAGPTLAGALLQAGLVDELIVYIAPKLLGSDARGLCTLPGLEKLADAPQFKFKEIRHVGPDVCLHLVGA", "soluble on expression in E. coli", "soluble"],
  ["MVEKHLLEFLEKLQFLISKNVKISHYGIENVKKICGVDIAYKGNLGFSVGVSMDINSGDYNYKSYVGEVNFPYIPGFLFMREAPLMIKAIEGLDCHLLLVDGHGIAHPRKSGIAAVIGVLLDFPTIGVAKSRLTGDLVNESEITYVYLNGEKVGVKFGRYFYSPGNKVDLQDCIELGKRGYPKVLKIADMLTKKIKKE", "soluble on expression in E. coli", "soluble"]
]}
